molecular target: human TLR9 (Homo sapiens (Human)); assay: TLR9 inhibition reporter assay (HEK-Blue SEAP); conditions: read-out: TLR9 IC50; HEK-Blue cells overexpressing human TLR9, ODN2006 5 nM stimulation, SEAP reporter
Sequence (Q9NR96 26-1032): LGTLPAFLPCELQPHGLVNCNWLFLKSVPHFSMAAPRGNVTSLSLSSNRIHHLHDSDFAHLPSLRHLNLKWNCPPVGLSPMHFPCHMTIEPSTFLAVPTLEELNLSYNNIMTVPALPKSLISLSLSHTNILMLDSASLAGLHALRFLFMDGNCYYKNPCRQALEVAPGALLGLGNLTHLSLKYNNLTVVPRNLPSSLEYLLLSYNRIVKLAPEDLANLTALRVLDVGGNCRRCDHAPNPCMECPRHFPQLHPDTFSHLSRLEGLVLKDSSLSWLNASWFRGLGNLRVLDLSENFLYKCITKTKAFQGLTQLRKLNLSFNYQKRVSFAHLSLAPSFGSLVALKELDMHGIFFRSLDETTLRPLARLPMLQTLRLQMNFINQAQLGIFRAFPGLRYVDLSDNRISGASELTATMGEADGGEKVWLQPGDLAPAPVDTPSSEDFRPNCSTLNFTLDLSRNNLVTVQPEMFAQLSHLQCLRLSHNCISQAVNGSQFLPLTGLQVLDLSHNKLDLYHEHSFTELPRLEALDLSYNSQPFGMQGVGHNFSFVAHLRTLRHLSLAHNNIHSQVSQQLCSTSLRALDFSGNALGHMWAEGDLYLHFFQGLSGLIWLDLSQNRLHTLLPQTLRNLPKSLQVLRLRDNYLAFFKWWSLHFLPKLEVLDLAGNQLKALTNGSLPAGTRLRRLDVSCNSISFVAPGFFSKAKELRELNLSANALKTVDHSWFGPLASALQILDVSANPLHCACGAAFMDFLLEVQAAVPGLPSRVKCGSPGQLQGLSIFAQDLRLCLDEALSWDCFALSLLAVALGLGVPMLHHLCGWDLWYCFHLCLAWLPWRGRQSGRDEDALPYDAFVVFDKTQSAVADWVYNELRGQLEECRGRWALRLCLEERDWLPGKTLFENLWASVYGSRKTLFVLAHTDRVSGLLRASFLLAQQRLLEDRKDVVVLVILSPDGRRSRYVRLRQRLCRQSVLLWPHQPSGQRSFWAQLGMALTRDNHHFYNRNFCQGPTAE
parameter: IC50 (µM)

Illustrative cases are given below, each with its answer.
compound	unit	IC50
COc1cc(-c2[nH]c3cnc(C4CCN(CC5(C)COC5)CC4)c(F)c3c2C(C)C)cn2ncnc12 [Example 17]	µM	1.86
Cc1cc(-c2[nH]c3cnc(C4CCC(N(C)C(C)C)CC4)c(F)c3c2C(C)C)cn2ncnc12 (stereo not shown) [Example 108]	µM	2.76
Cc1cc(-c2[nH]c3cnc(C4CCN(CCS(C)(=O)=O)CC4)c(F)c3c2C(C)C)cn2ncnc12 [Example 149]	µM	13.1

[A] Cc1c(N2CCC(N3CCOCC3)CC2)ncc2[nH]c(-c3cc(C)c4ncnn4c3)c(C(C)C)c12 [Example 282]
[B] Cc1c(-c2[nH]c3cnc(C4CCC(NCC(C)(C)C)CC4)c(F)c3c2C(C)C)cn2ncnc2c1C (stereo not shown) [Example 234]
[C] COc1cc(-c2[nH]c3cnc(N4CCN(CC(=O)N(C)C)CC4)c(C)c3c2C(C)C)cn2ncnc12 [Example 252]
[D] COc1cc(-c2[nH]c3cnc(C4CCN(CC(C)(C)O)CC4)cc3c2C(C)C)cn2ncnc12 [Example 296]
Please give the order of these compounds when sorted by IC50, largest value leading. Form entry: labels listed in requested order.
C, A, B, D

====

biological target: human TLR7 (Homo sapiens (Human), UniProt Q9NYK1); test: TLR7 inhibition reporter assay (HEK-Blue SEAP); format: cell-based; conditions: HEK-Blue cells overexpressing human TLR7, gardiquimod 7.5 μM stimulation
Sequence (Q9NYK1 27-1049): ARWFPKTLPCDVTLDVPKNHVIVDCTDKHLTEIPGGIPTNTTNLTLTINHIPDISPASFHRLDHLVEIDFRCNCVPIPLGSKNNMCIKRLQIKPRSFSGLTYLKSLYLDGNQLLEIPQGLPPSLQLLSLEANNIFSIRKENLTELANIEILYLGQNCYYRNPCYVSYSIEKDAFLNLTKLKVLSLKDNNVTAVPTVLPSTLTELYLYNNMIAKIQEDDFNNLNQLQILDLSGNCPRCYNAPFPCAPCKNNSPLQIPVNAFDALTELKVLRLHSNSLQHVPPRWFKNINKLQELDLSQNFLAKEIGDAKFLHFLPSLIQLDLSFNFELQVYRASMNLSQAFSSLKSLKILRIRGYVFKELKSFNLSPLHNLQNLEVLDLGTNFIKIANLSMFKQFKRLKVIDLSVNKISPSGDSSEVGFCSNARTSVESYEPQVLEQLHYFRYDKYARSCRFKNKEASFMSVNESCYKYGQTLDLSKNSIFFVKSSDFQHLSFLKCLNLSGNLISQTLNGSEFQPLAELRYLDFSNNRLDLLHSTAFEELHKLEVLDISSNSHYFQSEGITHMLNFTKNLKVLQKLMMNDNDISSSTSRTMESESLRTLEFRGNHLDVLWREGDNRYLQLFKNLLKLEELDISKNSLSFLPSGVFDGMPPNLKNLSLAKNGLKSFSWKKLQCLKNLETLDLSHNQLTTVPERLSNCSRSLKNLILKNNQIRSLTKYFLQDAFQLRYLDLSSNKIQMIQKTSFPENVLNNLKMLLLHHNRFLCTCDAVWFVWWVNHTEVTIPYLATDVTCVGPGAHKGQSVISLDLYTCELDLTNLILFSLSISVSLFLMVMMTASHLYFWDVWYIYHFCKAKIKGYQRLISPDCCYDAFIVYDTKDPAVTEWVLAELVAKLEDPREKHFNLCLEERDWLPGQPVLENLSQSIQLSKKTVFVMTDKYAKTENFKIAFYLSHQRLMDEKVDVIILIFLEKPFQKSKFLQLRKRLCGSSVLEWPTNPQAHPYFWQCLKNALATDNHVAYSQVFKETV
pIC50: −log10 of the molar value.
parameter: pIC50

Illustrative cases are given below, each with its answer.
compound	data-value
CNC(=O)CN1CCN(c2ncc3[nH]c(-c4cn5ncnc5c(C)c4C)c(C(C)C)c3c2F)[C@H](C)C1 [Example 465]	8.07
COc1cc(-c2[nH]c3cnc(N4CCC(NC(C)C)CC4)cc3c2C(C)C)cn2ncnc12 [Example 307]	8.52
COc1cc(-c2[nH]c3cnc(N4CCC(N5CC6(COC6)C5)CC4)c(F)c3c2C(C)C)cn2ncnc12 [Example 254]	8.82
Cc1c(-c2[nH]c3cnc(C4CCC(NCC5(C)COC5)CC4)c(C)c3c2C(C)C)cn2ncnc2c1C (stereo not drawn) [Example 204]	8.18

[a] CNC(=O)CN(C)C1CCC(c2cc3c(C(C)C)c(-c4cc(OC)c5ncnn5c4)[nH]c3cn2)CC1 (stereo not drawn) [Example 328]
[b] COc1cc(-c2[nH]c3cnc(N4CCC(N5CC6(COC6)C5)CC4)c(C)c3c2C(C)C)cn2ncnc12 [Example 139]
[c] CC(=O)N1CCN(c2ncc3[nH]c(-c4cn5ncnc5c(C)c4C)c(C(C)C)c3c2F)CC1 [Example 427]
[d] COc1cc(-c2[nH]c3cnc(N4CCN(CCS(C)(=O)=O)CC4)c(Cl)c3c2C(C)C)cn2ncnc12 [Example 294]
Form: Sort by [pIC50] Order [ ascending ] Form entry: labels listed in requested order.
c, a, d, b

[1] Cc1c(-c2[nH]c3cnc(C4CCC(NCC(C)(C)C)CC4)cc3c2C(C)C)cn2ncnc2c1C (stereo not drawn) [Example 351]
[2] Cc1c(-c2[nH]c3cnc(N4CC5(CN(CC(C)C)C5)C4)c(F)c3c2C(C)C)cn2ncnc2c1C [Example 402]
Of 1 and 2 , whose reported pIC50 is numerically smaller? // return label of chosen record
2
(2: 7.52, 1: 7.96)

[a] Cc1c(-c2[nH]c3cnc(N4CCC(NC5COC5)CC4)c(F)c3c2C(C)C)cn2ncnc2c1C [Example 146]
[b] Cc1cc(-c2[nH]c3cnc(C4CCC(NC5CCOCC5)CC4)c(F)c3c2C(C)C)cn2ncnc12 (stereo not drawn) [Example 110]
[c] COc1cc(-c2[nH]c3cnc(N4CCN(CC(C)C)C[C@H]4C)c(F)c3c2C(C)C)cn2ncnc12 [Example 453]
[d] COc1cc(-c2[nH]c3cnc(C4CCN(CC(C)(C)O)CC4)cc3c2C(C)C)cn2ncnc12 [Example 296]
Please give the order of these compounds when sorted by pIC50, largest value leading. Form entry: labels listed in requested order.
a, b, d, c
(a: 8.96, b: 8.70, d: 8.48, c: 7.80)

====

biological target: human TLR8 (Homo sapiens (Human)); test: TLR8 inhibition reporter assay (HEK-Blue SEAP); settings: read-out: TLR8 IC50; HEK-Blue cells overexpressing human TLR8, R848 15.9 μM stimulation, SEAP reporter
parameter: IC50 (nM)

compound	unit	IC50
COc1cc(-c2[nH]c3cnc(N4CC5(CN(CC6CC6)C5)C4)c(F)c3c2C(C)C)cn2ncnc12	nM	39
COc1cc(-c2[nH]c3cnc(N4CC5(C4)CN(C4COC4)C5)c(F)c3c2C(C)C)cn2ncnc12	nM	23
COc1cc(-c2[nH]c3cnc(N4CCN(CC5CCOCC5)CC4)c(F)c3c2C(C)C)cn2ncnc12	nM	0.31

[I] Cc1cc(-c2[nH]c3cnc(C4CCC(NCC(C)(C)O)CC4)c(F)c3c2C(C)C)cn2ncnc12 (stereo not drawn) [Example 164]
[II] Cc1c(-c2[nH]c3cnc(C4CCC(NC56CC(C5)C6)CC4)c(F)c3c2C(C)C)cn2ncnc2c1C (stereo not drawn) [Example 238]
[III] COc1cc(-c2[nH]c3cnc(N4CCN(C(C)C)CC4)c(F)c3c2C(C)C)cn2ncnc12
[IV] CCN(C)C1CCC(c2ncc3[nH]c(-c4cc(C)c5ncnn5c4)c(C(C)C)c3c2F)CC1 (stereo not drawn) [Example 163]
Form: Sort by [IC50] Order [ ascending ] Form entry: labels listed in requested order.
III, IV, I, II
(III: 0.55 nM, IV: 0.87 nM, I: 4.6 nM, II: 21 nM)

[A] Cc1cc(-c2[nH]c3cnc(C4CCN(CC(N)=O)CC4)c(F)c3c2C(C)C)cn2ncnc12
[B] COc1cc(-c2[nH]c3cnc(N4CCC(N5CCC5)CC4)c(C)c3c2C(C)C)cn2ncnc12
[C] Cc1c(N2CCC(N3CCS(=O)(=O)CC3)CC2)ncc2[nH]c(-c3cc(C)c4ncnn4c3)c(C(C)C)c12
[D] Cc1cc(-c2[nH]c3cnc(C4CCC(NC5(C)COC5)CC4)c(F)c3c2C(C)C)cn2ncnc12 (stereo not drawn)
[E] Cc1cc(-c2[nH]c3cnc(N4CCC(NCC(C)(C)O)CC4)c(F)c3c2C(C)C)cn2ncnc12
Please give the order of these compounds when sorted by IC50, largest value leading. Form entry: labels listed in requested order.
C, A, B, D, E

[I] COCCN1CCN(c2ncc3[nH]c(-c4cc(OC)c5ncnn5c4)c(C(C)C)c3c2F)CC1
[II] Cc1c(-c2[nH]c3cnc(N4CCC(NC5COC5)CC4)c(F)c3c2C(C)C)cn2ncnc2c1C
[III] Cc1cc(-c2[nH]c3cnc(N4CCC(N(C)CC(=O)N(C)C)CC4)c(F)c3c2C(C)C)cn2ncnc12
Please give the order of these compounds when sorted by IC50, largest value leading. Form entry: labels listed in requested order.
III, I, II
(III: 1.9 nM, I: 0.76 nM, II: 0.46 nM)

====

target: human TLR8 (Homo sapiens (Human), UniProt Q9NR97); assay: TLR8 inhibition reporter assay (HEK-Blue SEAP); details: read-out: TLR8 IC50; HEK-Blue cells overexpressing human TLR8, R848 15.9 μM stimulation, SEAP reporter;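 further: SEAP driven by IFN-β minimal promoter with five NF-κB and AP-1 sites, compounds tested 0.05 nM to 50 µM, 22 h incubation, inhibition relative to agonist plus DMSO wells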
Sequence (Q9NR97 27-1041): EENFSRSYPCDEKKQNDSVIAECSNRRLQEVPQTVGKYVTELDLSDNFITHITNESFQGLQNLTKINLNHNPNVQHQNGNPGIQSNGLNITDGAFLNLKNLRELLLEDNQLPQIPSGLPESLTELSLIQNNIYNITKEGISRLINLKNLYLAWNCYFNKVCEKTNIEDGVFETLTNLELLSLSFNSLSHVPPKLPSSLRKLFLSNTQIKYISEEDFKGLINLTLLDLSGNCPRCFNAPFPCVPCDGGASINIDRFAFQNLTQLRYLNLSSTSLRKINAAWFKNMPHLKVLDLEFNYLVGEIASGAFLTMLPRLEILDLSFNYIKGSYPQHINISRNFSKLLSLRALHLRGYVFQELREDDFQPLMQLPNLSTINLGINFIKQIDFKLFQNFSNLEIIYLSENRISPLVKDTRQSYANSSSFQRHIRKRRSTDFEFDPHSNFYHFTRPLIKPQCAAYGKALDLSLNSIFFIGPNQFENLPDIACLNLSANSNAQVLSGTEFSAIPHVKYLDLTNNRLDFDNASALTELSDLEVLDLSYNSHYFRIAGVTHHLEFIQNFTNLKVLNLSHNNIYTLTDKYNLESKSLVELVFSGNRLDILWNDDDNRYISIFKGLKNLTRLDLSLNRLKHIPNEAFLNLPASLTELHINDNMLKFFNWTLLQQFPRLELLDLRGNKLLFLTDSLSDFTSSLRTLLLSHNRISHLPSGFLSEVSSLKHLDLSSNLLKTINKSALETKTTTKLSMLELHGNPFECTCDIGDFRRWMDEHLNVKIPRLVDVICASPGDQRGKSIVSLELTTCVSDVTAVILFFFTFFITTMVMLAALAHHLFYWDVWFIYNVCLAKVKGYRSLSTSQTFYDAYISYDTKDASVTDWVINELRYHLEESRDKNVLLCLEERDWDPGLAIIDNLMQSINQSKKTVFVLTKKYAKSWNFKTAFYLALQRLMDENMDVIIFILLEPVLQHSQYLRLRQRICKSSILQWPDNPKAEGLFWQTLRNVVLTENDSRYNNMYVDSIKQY
pIC50: −log10 of the molar value.
parameter: pIC50

[1] CCCN1CC2(C1)CN(c1ncc3[nH]c(-c4cc(OC)c5ncnn5c4)c(C(C)C)c3c1F)C2
[2] Cc1c(-c2[nH]c3cnc(N4CCC(N5CC6(COC6)C5)CC4)c(F)c3c2C(C)C)cn2ncnc2c1C
In the pair 1 and 2 , the larger recorded pIC50 belongs to which? // return label of chosen record
2

====

target: UniProtKB Q9NR96; assay: TLR9 inhibition reporter assay (HEK-Blue SEAP); conditions: read-out: TLR9 IC50; HEK-Blue cells overexpressing human TLR9, ODN2006 5 nM stimulation, SEAP reporter;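 further: SEAP driven by IFN-β minimal promoter carrying five NF-κB and AP-1 sites, 22 h at 37 °C, compounds 0.05 nM–50 µM, inhibition scaled between agonist-plus-DMSO and reference-inhibitor wells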
parameter: IC50 (µM)

molecule	data-value
Cc1c(-c2[nH]c3cnc(C4CCC(NC56CC(C5)C6)CC4)c(F)c3c2C(C)C)cn2ncnc2c1C (stereo not shown) [Example 238]	28.5

[a] Cc1c(-c2[nH]c3cnc(C4CCC(NC5CCOC5)CC4)cc3c2C(C)C)cn2ncnc2c1C (stereo not shown) [Example 327]
[b] COc1cc(-c2[nH]c3cnc(N4CC5(CN(CC6CCC6)C5)C4)c(F)c3c2C(C)C)cn2ncnc12
[c] Cc1cc(-c2[nH]c3cnc(C4CCN(C(=O)CN(C)C)CC4)cc3c2C(C)C)cn2ncnc12
Form: Sort by [IC50] Order [ ascending ] Form entry: labels listed in requested order.
c, a, b
(c: 0.25 µM, a: 0.771 µM, b: 7.21 µM)
